Sourced from paper PMC3602459

test system: tRNA^phe (yeast) (RNA, tRNA) GCGGAUUUAGCUCAGUUGGGAGAGCGCCAGACUGAAGAUCUGGAGGUCCUGUGUUCGAUCCACAGAAUUCGCACCA; experiment: absorbance titration, Scatchard, McGhee-von Hippel cooperative fit; conditions: 10 mM Na+; citrate-phosphate, pH 7.1, 20 °C; overall cooperative constant; tRNA in nucleotide phosphates; per base
The following molecules are shown together with reported Kiω values.
quantity: Kiω (M⁻¹)

| smiles code | meas value |
| --- | --- |
| COc1ccc2cc3[n+](cc2c1OCC(=O)NCc1ccccc1)CCc1cc2c(cc1-3)OCO2 | 640000 |
| COc1ccc2cc3[n+](cc2c1OC)CCc1cc2c(cc1-3)OCO2 | 169000 |
| COc1ccc2cc3[n+](cc2c1OCC(=O)NCCc1ccccc1)CCc1cc2c(cc1-3)OCO2 | 922000 |
| COc1ccc2cc3[n+](cc2c1OCC(=O)Nc1ccccc1)CCc1cc2c(cc1-3)OCO2 | 434000 |

* * *

system: tRNA^phe (yeast) (RNA, tRNA) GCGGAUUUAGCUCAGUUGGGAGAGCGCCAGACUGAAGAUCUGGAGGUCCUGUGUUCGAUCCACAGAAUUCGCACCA; assay: absorbance titration, Benesi-Hildebrand; conditions: 10 mM Na+; citrate-phosphate, pH 7.1, 20 °C; apparent; tRNA in nucleotide phosphates; per base
The following molecules are shown together with reported log10 KBH values.
quantity: log10 KBH (log10 of the value in M⁻¹)

| smiles code | log10 KBH |
| --- | --- |
| COc1ccc2cc3[n+](cc2c1OCC(=O)NCc1ccccc1)CCc1cc2c(cc1-3)OCO2 | 5.79 |
| COc1ccc2cc3[n+](cc2c1OC)CCc1cc2c(cc1-3)OCO2 | 5.06 |
| COc1ccc2cc3[n+](cc2c1OCC(=O)NCCc1ccccc1)CCc1cc2c(cc1-3)OCO2 | 5.94 |
| COc1ccc2cc3[n+](cc2c1O)CCc1cc2c(cc1-3)OCO2 | 3.63 |
| COc1ccc2cc3[n+](cc2c1OCC(=O)Nc1ccccc1)CCc1cc2c(cc1-3)OCO2 | 5.63 |

* * *

The following compounds are shown together with reported Ka values.
system: tRNA^phe (yeast) (RNA, tRNA) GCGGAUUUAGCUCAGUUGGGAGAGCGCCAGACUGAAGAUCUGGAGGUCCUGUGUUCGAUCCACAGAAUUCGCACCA; experiment: ITC, single-site fit; details: 10 mM Na+; citrate-phosphate, pH 7.0, 20 °C; tRNA concentration in nucleotide phosphates; per base

| smiles code | Ka |
| --- | --- |
| COc1ccc2cc3[n+](cc2c1OC)CCc1cc2c(cc1-3)OCO2 | 0.86 ± 0.01 × 10^5 M^-1 |
| COc1ccc2cc3[n+](cc2c1OCC(=O)NCc1ccccc1)CCc1cc2c(cc1-3)OCO2 | 7.17 ± 0.03 × 10^5 M^-1 |
| COc1ccc2cc3[n+](cc2c1OCC(=O)Nc1ccccc1)CCc1cc2c(cc1-3)OCO2 | 4.67 ± 0.03 × 10^5 M^-1 |
| COc1ccc2cc3[n+](cc2c1OCC(=O)NCCc1ccccc1)CCc1cc2c(cc1-3)OCO2 | 8.20 ± 0.04 × 10^5 M^-1 |

* * *

system: tRNA^phe (yeast) (RNA, tRNA) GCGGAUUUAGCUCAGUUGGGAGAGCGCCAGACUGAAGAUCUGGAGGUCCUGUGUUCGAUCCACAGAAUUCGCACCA; assay: fluorescence titration, Scatchard, McGhee-von Hippel cooperative fit; details: 10 mM Na+; citrate-phosphate, pH 7.1, 20 °C; overall cooperative constant; tRNA in nucleotide phosphates; per base
quantity: Kiω (M⁻¹)

| smiles code | meas value |
| --- | --- |
| COc1ccc2cc3[n+](cc2c1OCC(=O)NCc1ccccc1)CCc1cc2c(cc1-3)OCO2 | 658000 |
| COc1ccc2cc3[n+](cc2c1OCC(=O)NCCc1ccccc1)CCc1cc2c(cc1-3)OCO2 | 941000 |
| COc1ccc2cc3[n+](cc2c1OC)CCc1cc2c(cc1-3)OCO2 | 177000 |
| COc1ccc2cc3[n+](cc2c1OCC(=O)Nc1ccccc1)CCc1cc2c(cc1-3)OCO2 | 427000 |

* * *

system: tRNA^phe (yeast) (RNA, tRNA) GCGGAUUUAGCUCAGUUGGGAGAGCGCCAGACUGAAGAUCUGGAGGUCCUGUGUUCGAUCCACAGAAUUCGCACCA; test: fluorescence titration, Benesi-Hildebrand; settings: 10 mM Na+; citrate-phosphate, pH 7.1, 20 °C; apparent; tRNA in nucleotide phosphates; per base
quantity: log10 of KBH (log10 of the value in M⁻¹)

| smiles code | meas value |
| --- | --- |
| COc1ccc2cc3[n+](cc2c1OCC(=O)Nc1ccccc1)CCc1cc2c(cc1-3)OCO2 | 5.61 |
| COc1ccc2cc3[n+](cc2c1OC)CCc1cc2c(cc1-3)OCO2 | 5.09 |
| COc1ccc2cc3[n+](cc2c1OCC(=O)NCCc1ccccc1)CCc1cc2c(cc1-3)OCO2 | 5.95 |
| COc1ccc2cc3[n+](cc2c1O)CCc1cc2c(cc1-3)OCO2 | 3.62 |
| COc1ccc2cc3[n+](cc2c1OCC(=O)NCc1ccccc1)CCc1cc2c(cc1-3)OCO2 | 5.81 |
